// compounds with IC50 on Receptor-type tyrosine-protein kinase FLT3 (Homo sapiens, UniProt P36888), multi-source literature
reported metric: IC50 (nM)

compound | measurement units | qualifier symbol | quantitative result
C/C=C/C(=O)Nc1cc2cc(c1)Nc1nccc(n1)-c1cccc(c1)COC/C=C/CN(C)C2 | nM | = | 9
CC(C)(O)CCn1cc2cc(NC(=O)c3ccn(-c4ccnc(C(F)(F)F)c4)n3)c(C(C)(C)O)cc2n1 | nM | = | 39
Cc1cc(-c2nc(C(=O)Nc3cc4cn(C5CC6CCC(C5)O6)nc4cc3C(C)(C)O)co2)ccn1 (stereo not shown) | nM | = | 0.26
O[C@H]1COc2cc(ccc2N2CCN3CCOC[C@H]3C2)-c2n[nH]c3cnc(cc23)-c2c(F)cccc2OC1 | nM | ≤ | 5

###

Here we gather IC50 data for Receptor-type tyrosine-protein kinase FLT3 (Homo sapiens, UniProt P36888) reported by several publications.

compound | measurement units | qualifier symbol | IC50
CC(C)(O)CCc1cc2cc(NC(=O)c3coc(-c4ccnc(C(F)(F)F)c4)n3)c(C(C)(C)O)cn2n1 | nM | = | 15.5
Cc1cc(-c2nc(C(=O)Nc3cc4oc(N5CCC(C(F)(F)F)CC5)nc4nc3N3CCC(O)C3)co2)ccn1 (centres unmarked) | nM | = | 8.9
Cc1cc(-c2nc(C(=O)Nc3cc4cn(CCN5CCC(F)(F)C5)nc4cc3C(C)(C)O)co2)ccn1 | nM | = | 0.53
Cc1cc(-c2nc(C(=O)Nc3cc4cc(CCC(C)(C)O)nn4cc3C(C)(C)O)co2)ccn1 | nM | = | 0.79
Cc1cc(-c2nc(C(=O)Nc3cc4oc(N5CCC(F)(F)CC5)nc4nc3N3CCC(O)C3)co2)ccn1 (centres unmarked) | nM | = | 11
CN1C[C@@H]2C[C@H]1CN2c1ccc2cc1OCCCOCc1cccc(F)c1-c1cc3c-2n[nH]c3cn1 | nM | ≤ | 5
C#CC(=O)Nc1cc2cc(c1)Nc1nccc(n1)-c1cccc(c1)COC/C=C/COC2 | nM | = | 7
O=C(/C=C/CN1CCOCC1)Nc1cc2cc(c1)Nc1nccc(n1)-c1cccc(c1)COC/C=C/COC2 | nM | = | 4

###

IC50 values for Receptor-type tyrosine-protein kinase FLT3 (Homo sapiens, UniProt P36888) compiled from several publications are listed below.

molecule | IC50
O=C(O)/C=C/C(=O)Nc1cc2cc(c1)Nc1nccc(n1)-c1cccc(c1)COC/C=C/COC2 | 31 nM
CN1CCN(c2ccc3cc2OCCCOc2cccc(F)c2-c2cc4c-3n[nH]c4cn2)CC1 | ≤ 5 nM
Cc1cc(-c2nc(C(=O)Nc3cc4sc(N5CCOCC5)nc4nc3C(C)(C)O)co2)ccn1 | 0.31 nM
Cc1cc(-c2nc(C(=O)Nc3cc4cn(CCC(C)(C)O)nc4cc3N3CCC(F)(F)C3)co2)ccn1 | 0.44 nM
Cc1cc(-c2nc(C(=O)Nc3cc4cn(CCC5CCNC5=O)nc4cc3C(C)(C)O)co2)ccn1 (centres unmarked) | 0.34 nM
CN1CCN(c2ccc3cc2OCCOCc2cccc(F)c2-c2cc4c-3n[nH]c4cn2)CC1 | ≤ 5 nM
Cc1cc(-c2nc(C(=O)Nc3cc4cn(CC5(F)COC5)nc4cc3C(C)(C)O)co2)ccn1 | 0.25 nM
OCCN1CCN(c2ccc3cc2OCCCOCc2cccc(F)c2-c2cc4c-3n[nH]c4cn2)CC1 | ≤ 5 nM
